experiment: NCI Yeast Anticancer Drug Screen. Data for the bub3 strain (AID 167); settings: S. cerevisiae bub3 mutant strain, at 50.0 µM, hits give high values
About 79,000 compounds went through this panel and 15% of them were active in at least one assay; those are over-represented in the sample as a whole.
QUANTITY NAME: growth inhibition (%)
Value expressed in %; do not type the unit.

Worked examples follow.
CCC(C)C(C)/C(C)=N/Nc1ccc([N+](=O)[O-])cc1[N+](=O)[O-] (centres undefined) | 6.6
O=c1c(-c2ccccc2)c(O)on1/C=C1/C=CC=N1 | 7.2
CC(C)(C)c1cc(-c2cc(C(C)(C)C)n(-c3ccccc3)n2)nn1-c1ccccc1 | -31.4
Oc1cc(N2CCCC2)ccc1/C=N/N1C(=S)N(c2ccccc2)C(=Nc2ccccc2)C1=Nc1ccccc1 | -30.6
O=C(/C=C/c1ccc(O)cc1)c1cc(O)cc(O)c1 | -4.1
O=[N+]([O-])c1cccc(-c2oc(C=Nc3ccccc3)c([N+](=O)[O-])c2-c2cccc([N+](=O)[O-])c2)c1 | 17.6
CSCCC(NCc1c(O)ccc2ccc(=O)oc12)C(=O)O (centres undefined) | 0.95
O=C(NC1CCCCC1)OC/C=C\c1ccccc1 | 12.3
Cc1ccc(-c2cs/c(=N\N=C3/CSC(=O)N3Cc3ccccc3)n2-c2ccccc2)cc1 | -2.55
Nc1ccc([N+](=O)[O-])c(C(=O)O)c1 | -15.1

Dear colleague, I am looking for the recorded growth inhibition of the following compound: `COc1ccccc1N/C(=C\C(=O)C(=O)NC12CC3CC(CC(C3)C1)C2)c1ccccc1`
3.75

Dear colleague, I am looking for the recorded growth inhibition of the following compound: `CCOC(=O)c1ccc[n+]([O-])c1`
-13.2

Dear colleague, I am looking for the recorded growth inhibition of the following compound: `Clc1ccccc1N=NNc1ccccc1Cl`
6.35

###

assay: NCI Yeast Anticancer Drug Screen. Data for the mec2-1 strain (AID 157); settings: S. cerevisiae mec2-1 strain, at 50.0 µM, hits give high values
The panel holds about 79,000 compounds, 15% with a hit somewhere; the sample as a whole holds those more often.
Readings of growth inhibition for the listed compounds
Value expressed in %; do not type the unit.

Worked examples follow.
CNc1ncnc2[nH]ncc12 | -0.85
C[N+](C)(N)CCS(N)(=O)=O | -9.8
Nc1nnc2c(=O)[nH]cnc2n1 | -8.8
CCCCCCCCCCCCCCCC(=O)OCC1OC(OC2(COC(=O)CCCCCCCCCCCCCCC)OC(COC(=O)CCCCCCCCCCCCCCC)C(OC(=O)CCCCCCCCCCCCCCC)C2OC(=O)CCCCCCCCCCCCCCC)C(OC(=O)CCCCCCCCCCCCCCC)C(OC(=O)CCCCCCCCCCCCCCC)C1OC(=O)CCCCCCCCCCCCCCC (stereo not given) | -26
O=C(O)c1c[nH]c2cc(OCc3ccc(Br)cc3)ccc2c1=O | 0.65

Dear colleague, I am looking for the recorded growth inhibition of the following compound: `COC1=C(OC)C(=O)C(C(=O)CCCCC(=O)O)=C(C)C1=O`
0.5

Dear colleague, I am looking for the recorded growth inhibition of the following compound: `COC(=S)SCSC(=S)OC`
-27.3

Dear colleague, I am looking for the recorded growth inhibition of the following compound: `Cc1cc(NS(=O)(=O)c2ccc(NC(=O)c3ccc(Cl)c4c(Nc5ccc(S(=O)(=O)N=C(N)N)cc5)c5ccccc5nc34)cc2)no1`
42.1

###

Test: NCI Yeast Anticancer Drug Screen. Data for the cln2 rad14 strain (AID 165);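 further: 0% = growth equal to vehicle treated cultures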
Details: S. cerevisiae cln2 rad14 strain, at 50.0 µM, hits give high values
Description: Growth inhibition of yeast strains with defined genetic alterations is measured as a screen for potential anti-cancer activity. Selected strains with alterations in DNA damage repair or cell cycle control were exposed to compounds and growth inhibition was measured relative to vehicle treated controls. The strain used in this assay is cln2 rad14
About 79,000 compounds went through this panel and 15% of them were active in at least one assay; those are over-represented in the sample as a whole.
Please use TRUE whenever growth inhibition is not below 10%, and FALSE whenever it is.

Sample answers from the record:
CC(=O)NCCSSCCCCS(=O)O | TRUE
CCC[C@@H]1CCCC[C@H]1C | FALSE
CC1=C(C(=O)Nc2c(C)cccc2C)C(c2ccccc2Cl)C(C(=O)Nc2c(C)cccc2C)=C(C)N1 | FALSE
Fc1cccc(-c2nnc(-c3ccccc3)o2)c1 | TRUE
CC(=O)OCCOCN1C(=O)CC(=O)NC1=O | FALSE
Nc1ccc2ccsc2c1 | TRUE

Please find the next compound below.
Quick check, growth inhibition >= 10%? `C[N+]1(C)C2Cc3ccccc3C1Cc1ccccc12`
TRUE

###

assay: NCI Yeast Anticancer Drug Screen. Data for the rad50 strain (AID 155);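 further: 0% = growth of vehicle-only cultures of the same strain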; conditions: S. cerevisiae rad50 strain growth inhibition; at 50.0 µM
This is part of a sample that, as a whole, favours compounds with a hit. Of some 79,000 tested, about 15% had one in any assay. Activity calls are given as the source filed them. Rule as the data show it: active = growth inhibition above about 70%; inactive = the rest.
The categories you may choose from are active, inactive

CC(C)=NC(C(=O)O)C(C)(C)S (stereo not drawn) | inactive
CC(=O)Nc1ccc2c([N+](=O)[O-])cccc2c1-c1c(NC(C)=O)ccc2c([N+](=O)[O-])cccc12 | inactive

Hey, what did the test say about `CCC[CH2][Sn]([CH2]CCC)([O]C(=O)c1nccnc1N)[O]C(=O)c1nccnc1N` ?
active

###

experiment: NCI Yeast Anticancer Drug Screen. Data for the mec2-1 strain (AID 157); conditions: S. cerevisiae mec2-1 strain, at 50.0 µM
The panel holds about 79,000 compounds, 15% with a hit somewhere; the sample as a whole holds those more often. Activity calls are given as the source filed them. Rule as the data show it: active = growth inhibition above about 70%; inactive = the rest.
The categories you may choose from are active, inactive

Sample answers from the record:
CCCCCCCCCCCCCCCCCC(=O)NCC[N+](C)(C)C | active
O=c1ccc2cc3ccoc3c(OCCOCCOCCOCCOc3c4occc4cc4ccc(=O)oc34)c2o1 | inactive
CCCn1c(CC)nc([N+](=O)[O-])c1Sc1ncn[nH]1 | inactive

Please find the next molecule below.
Hey, what did the test say about `Nc1ccc(C(=O)O)cn1` ?
inactive

###

Assay: NCI Yeast Anticancer Drug Screen. Data for the bub3 strain (AID 167)
Details: S. cerevisiae bub3 mutant strain, at 50.0 µM, hits give high values
Procedure: Growth inhibition of yeast strains with defined genetic alterations is measured as a screen for potential anti-cancer activity. Selected strains with alterations in DNA damage repair or cell cycle control were exposed to compounds and growth inhibition was measured relative to vehicle treated controls. The strain used in this assay is bub3
The panel holds about 79,000 compounds, 15% with a hit somewhere; the sample as a whole holds those more often.
QUANTITY NAME: growth inhibition (%)
Value expressed in %; do not type the unit.

CCCCCCCCCC(C)(O)C(N)=O (configuration not stated) | -5.65
CCN1C(=O)N(CC)C2(CC(=O)c3ccccc3O2)C1=O (configuration not stated) | 20.1
CC/C=N/NC(=O)OCC | -3.3

Dear colleague, I am looking for the recorded growth inhibition of the following compound: `CC(C)(C)CC(C)(C)NCc1ccc(Cl)cc1`
65.6

Dear colleague, I am looking for the recorded growth inhibition of the following compound: O=C(/C=C/c1ccc(O)cc1)OCC1OC(Oc2cc(O)c3c(c2)OC(c2ccc(O)cc2)CC3=O)C(O)C(O)C1O (configuration not stated)
14.3

Dear colleague, I am looking for the recorded growth inhibition of the following compound: `CC(=O)NCC(=O)O`
-9.6

Dear colleague, I am looking for the recorded growth inhibition of the following compound: `Cc1ccc(P(=S)(c2ccc(C)c3ccccc23)c2ccc(C)c3ccccc23)c2ccccc12`
0.1

###

assay: NCI Yeast Anticancer Drug Screen. Data for the rad50 strain (AID 155);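 further: 0% = growth of vehicle-only cultures of the same strain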; settings: S. cerevisiae rad50 strain growth inhibition; at 50.0 µM; hits give high values
The panel holds about 79,000 compounds, 15% with a hit somewhere; the sample as a whole holds those more often.
Readings of growth inhibition for the listed compounds
Value expressed in %; do not type the unit.

CC(=O)OCCOCCCl | -12.8
COC(=O)[C@@]1(C)/C(=N/NS(=O)(=O)c2ccc(C)cc2)CCC[C@@H]1C | 11.4

Dear colleague, I am looking for the recorded growth inhibition of the following compound: CC(=O)OCC(OC(C)=O)C(OC(C)=O)C(C=NN(C(C)=O)S(=O)(=O)c1ccc(/C=C2\NC(=O)NC2=O)cc1)OC(C)=O (centres undefined)
-4.6

Dear colleague, I am looking for the recorded growth inhibition of the following compound: `O=C(CCCCCCCCC(=O)OCCCn1cc(C(=O)NC(=O)OCc2ccccc2)c(=O)[nH]c1=O)OCCCn1cc(C(=O)NC(=O)OCc2ccccc2)c(=O)[nH]c1=O`
-28.6

Dear colleague, I am looking for the recorded growth inhibition of the following compound: `CC1CCN(C(=S)[S-])CC1.CC1CCN(C(=S)[S-])CC1.[Zn]`
58.9

Dear colleague, I am looking for the recorded growth inhibition of the following compound: `CC(C)(C)S(=O)(=O)CCCCl`
12.8

Dear colleague, I am looking for the recorded growth inhibition of the following compound: `CC(C)(C)c1ccc(C(=O)O)c(O)c1.CC(C)(C)c1ccc(C(=O)O)c(O)c1.[Cu]`
24.6

Dear colleague, I am looking for the recorded growth inhibition of the following compound: `CCOC(=O)C(=Cn1c(=S)[nH]c2cc(C)ccc21)C(=O)OCC`
-19.8

Dear colleague, I am looking for the recorded growth inhibition of the following compound: `CCCCCC#CC(=O)OCC`
0.6

Dear colleague, I am looking for the recorded growth inhibition of the following compound: `O=S(=O)(O)c1ccc(Nc2ccnc3cc(Cl)ccc23)cc1`
-21.4

Dear colleague, I am looking for the recorded growth inhibition of the following compound: `Cc1cc(NS(=O)(=O)c2ccc(NC(=O)c3ccc(Cl)c4c(Nc5ccc(S(=O)(=O)N=C(N)N)cc5)c5ccccc5nc34)cc2)no1`
29.9

Dear colleague, I am looking for the recorded growth inhibition of the following compound: `O=C1C(=O)N(C23CC4CC(CC(C4)C2)C3)C(=S)N1c1ccccc1`
-9.7

Dear colleague, I am looking for the recorded growth inhibition of the following compound: `O=P(CCc1ccccc1)(OCCCl)OCCCl`
10.2

Dear colleague, I am looking for the recorded growth inhibition of the following compound: `O=C1CCCC2=C1CC1=C(CCCC1=O)N2c1cccc2ccccc12`
7.7

Dear colleague, I am looking for the recorded growth inhibition of the following compound: `CS(=O)(=O)Nc1ccc(C(=O)CCN2CCCCCC2)cc1`
-4.35

Dear colleague, I am looking for the recorded growth inhibition of the following compound: `O=C(O)CCCCl`
12.3

Dear colleague, I am looking for the recorded growth inhibition of the following compound: O=C(OCN1C(=O)C2C3C=CC(C2C1=O)C1C2C(=O)N(COC(=O)C4CCCN4)C(=O)C2C31)C1CCCN1 (centres undefined)
5

Dear colleague, I am looking for the recorded growth inhibition of the following compound: `CCCCCSC`
21

Dear colleague, I am looking for the recorded growth inhibition of the following compound: `[O-][n+]1cscc1-c1nc2ccccc2[nH]1`
7.45
